Just for reference, PubChem BioAssay AID1851 is where these values come from.

Target: Cytochrome P450 1A2 (Homo sapiens) (UniProt P05177)
Sequence (P05177 whole entry, looked up): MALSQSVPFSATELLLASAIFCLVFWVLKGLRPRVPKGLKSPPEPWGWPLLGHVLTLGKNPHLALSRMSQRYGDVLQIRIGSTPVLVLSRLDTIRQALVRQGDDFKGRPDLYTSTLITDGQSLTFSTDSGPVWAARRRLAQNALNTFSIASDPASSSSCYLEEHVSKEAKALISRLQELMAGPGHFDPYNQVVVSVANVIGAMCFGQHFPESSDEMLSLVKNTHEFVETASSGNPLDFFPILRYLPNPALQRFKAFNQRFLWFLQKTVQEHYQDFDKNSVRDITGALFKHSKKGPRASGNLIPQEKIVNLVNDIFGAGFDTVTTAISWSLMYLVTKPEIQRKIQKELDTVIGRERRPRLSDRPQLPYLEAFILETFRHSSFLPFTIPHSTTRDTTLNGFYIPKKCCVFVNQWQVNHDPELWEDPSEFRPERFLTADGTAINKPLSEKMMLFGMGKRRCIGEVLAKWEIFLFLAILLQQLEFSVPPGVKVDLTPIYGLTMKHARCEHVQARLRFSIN
Assay: Cytochrome panel assay with activity outcomes
Settings: recombinant CYP, pro-luciferin dealkylation, luminescence, p450-cyp1a2; series mostly up to 57.1 µM
In all, about 16,000 compounds went through this assay and about 5,700 (36%) were called active. Roughly 24% stayed inconclusive and do not appear here. The call rests on the fitted dose curve; in most records, active means well fitted curve in the direction sought with a large enough effect; inconclusive means small, poorly fitted or top-dose-only effect, or effect the other way; inactive means no such curve, though single readings can be large or run the other way. This is one part of the list.
Could you please pick one outcome from this set? active, inactive

compound: Cc1cnc(CNc2ncncc2-c2ccc(N(C)C)cc2)cn1
class name: active
--
compound: COCC(=O)N1CCC2(CCCN(c3ccncc3)C2)CC1
class name: inactive
--
compound: O=C(c1cccs1)N1CCN(C(=O)C(c2ccccc2)c2ccccc2)CC1
class name: inactive
--
compound: CC(=O)N[C@@H](c1ccccc1)[C@]1(C)C[C@H]1[C@@H](C)C(=O)Nc1ccc2ccccc2c1
class name: active
--
compound: Cn1cccc1C(=O)N1CCC2(CCN(C(=O)Nc3cccc(F)c3)CC2)CC1
class name: inactive

Tell me the recorded outcome of this test for O=C(CSc1n[nH]c(-c2ccccc2O)n1)N1CCCc2ccccc21 .
active

# fetch the recorded call for CCCNC(=O)c1c(C)cc(=O)oc1C here
active

State the result this test recorded for C[C@@H](C(=O)Nc1ccc2ccccc2c1)[C@H]1C[C@]1(C)[C@H](NS(=O)(=O)c1ccc2ccccc2c1)c1ccccc1 .
inactive

What call does the record list for CCN(CC)C(=O)CSc1nnc(CNc2ccc(F)cc2)o1 ?
inactive

Hi, sorry to bother you, what did the test record for Cc1cc(=O)oc(C)c1C(=O)NCc1cccnc1 ?
active
